experimentSummary: Probe fluorescence ratio response to linolenic acid relative to ADIFAB2
Assay type: binding
reportedConditions: response relative to ADIFAB2
Quick reference for DR/DR LNA among some molecules
// print number alone

Completed entries (count: 2):
78F1, 72A (protein, listed as Rattus norvegicus, PEPTIDE (1)...(131) wild-type rat intestinal fatty acid binding protein) AFDGTWKVDRNENYEKFMEKMGINVVKRKLGAHDNLKLTITQEGNKFTVKESSNFRNIDVVFELGVDFAYSAADGTEFTGTWTMEGNKLVGKFKRVDNGKELIAVREISGNELIQTYTYEGVEAKRIFKKE : 2.05
62N 106F 117A 72A (protein, listed as Rattus norvegicus, PEPTIDE (1)...(131) wild-type rat intestinal fatty acid binding protein) AFDGTWKVDRNENYEKFMEKMGINVVKRKLGAHDNLKLTITQEGNKFTVKESSNFRNIDVVNELGVDFAYSAADGTELTGTWTMEGNKLVGKFKRVDNGKELIAVFEISGNELIQTATYEGVEAKRIFKKE : 0.756

Incoming: For the molecule 38A2, 72A (protein, listed as Rattus norvegicus, PEPTIDE (1)...(131) wild-type rat intestinal fatty acid binding protein) AFDGTWKVDRNENYEKFMEKMGINVVKRKLGAHDNLKATITQEGNKFTVKESSNFRNIDVVFELGVDFAYSAADGTELTGTWTMEGNKLVGKFKRVDNGKELIAVREISGNELIQTYTYEGVEAKRIFKKE , give its measured DR/DR LNA value.
Outgoing: 1.30

Ref: patent US20060257938A1
